Reference source for all entries: paper PMC8130932

Listed next: entries and their corresponding OD450.
Biological target: T1, SARS-CoV-2 spike S2 subunit, recombinant (SARS-CoV-2, reference sequence, UniProt P0DTC2)
T1 construct: source: bought: Sino Biologicals, baculovirus-insect cells
Experiment: ELISA
// return the numeric value with its unit appended

[[record]]
binder = "FM 1A (antibody, V domains shown, source: HEK293T, transfected; culture supernatant or purified) VH: EVQLLESGGGVVQPGRSLRLSCAASGFTFSSYGMHWVRQAPGKGLEWVAVIWYDGSNKYYADSVKGRFTISRDNSKNTLYLQMNSLRAEDTAVYYCAREGAVGATRGFDYWGQGTLVTVSS VL: SYELTQPPSVSVAPGQTARITCGGNNIGSKSVHWYQQKPGQAPVLVVYDDSDRPSGIPERFSGSNSGNTATLTISRVEAGDEADYYCQVWDSSSDQGVFGGGTKLTVL"
quantity_name = "OD450"
result = "0.88 OD450"

[[record]]
binder = "FJ 4E (antibody, V domains shown, source: HEK293T, transfected; culture supernatant or purified) VH: QVQLVESGPGLVKPSETLSLTCSVSGGSISSGTYYWSWIRQQPGKGLEWIGYIYNTGRPYYNPFLKSRITISVDSSKNQFSLKLTSVTAADTAVYYCARDEYDSSDSGIQGHWFDPWGQGTLVTVSS VL: AIRMTQSPSSLSASVGDRVTITCRTSQNINSFLNWYQQKPGKGPNLLIYGAFTLQSGVPSRFSGSGSGTDFTLTISSLQPEDFATYFCQQSYSTPWTFGQGTKVEIK"
quantity_name = "OD450"
result = "0.91 OD450"


Challenge: Reported OD450, binder FN 2C (antibody, V domains shown, source: HEK293T, transfected; culture supernatant or purified) VH: EVQLLESGGGVVQPGRSLRLSCAASGFNFNNYGMHWVRQAPGKGLEWVATISYEGSKKFYVDSVKGRFTISKDNSKNTLYLQMNSLRVDDTAFYYCAKRREIFWLGEPPLSDAFDFWGQGTMVTVSS VL: QSVLTQPPSVSGAPGQRVTISCTGSGSNIGAGYDVHWYQFLPGTAPQLLIYGNNNRPSGVPDRFSGSKSGTSASLAITGLQAEDEADYYCQSYDSSLSGSVFGGGTKLTVL : ____
Response given: 1.15 OD450

Challenge: Reported OD450, binder FB 1E (antibody, V domains shown, source: HEK293T, transfected; culture supernatant or purified) VH: EVQLVESGAEVKKPGESLKISCQGSGYRFNSYWIAWVRQMPGKGLEWMGSIFPTDSDIRYNPSFQGQVTISADKSISIAYLQWSSLKASDTAIYYCARHWASMVRGVIRASHYYGMDVWGQGTTVTVSS VL: QSVLTQPPSASGSPGQSVTISCSGASSDIGDYNYVSWYQQLPGKAPKLLIYEVTKRPSGVPDRFSGSKSGNTASLTVSGLQADDEADYYCSSYAFGGSDIRVFGGGTKLAVL : ____
Response given: 1.2 OD450

Challenge: Reported OD450, binder EW 9C (antibody, V domains shown, source: HEK293T, transfected; culture supernatant or purified) VH: EVQLVESGGGVVQPGASLRLSCVASGFTFNNFGFHWVRQAPGKGLEWLAVISYEGSKTYYAESLKGRFTISRDTSKNTVYLQMNSLRAEDTAVYYCARATSIFWFGEGRNWFDPWGQGTMVTVSS VL: EIVLTQSPGTVSLSAGERATLSCRASQNVGTDLAWYVQRPGQAPRLLIYDTSNKATGIPARFSGRGSGTDFTLTIDSLEPEDFAVYYCQQRSNWPLTFGGGTKVEIR : ____
Response given: 1.17 OD450

Challenge: Reported OD450, binder FD 1D (antibody, V domains shown, source: HEK293T, transfected; culture supernatant or purified) VH: EVQLVESGGGVVQPGRSLRLSCAASGFTFSSYAMHWVRQAPGKGLEWVAVISYDGSNKYYADSVKGRFTISRDNSKNTLYLQMNSLRAEDTAVYYCARAGSGSYLNWFDPWGQGTLVTVSS VL: EIVLTQSPATLSLSPGERATLSCRASQSVSSYLAWYQQKPGQAPRLLIYDASNRATGIPARFSGSGSGTDFTLTISSLEPEDFAVYYCQQRSNWPITFGQGTRLEIK : ____
Response given: 1.06 OD450

Challenge: Reported OD450, binder FB 9D (antibody, V domains shown, source: HEK293T, transfected; culture supernatant or purified) VH: QVQLVESGAEVKKPGESLKISCQGSGYRFNSYWIAWVRQMPGKGLEWMGSIFPTDSDVRYNPSFQGQVTISADKSISFAYLQWSSLKASDTAIYYCARHWASMVRGVIRASHYYGMDVWGQGTTVTVSS VL: QPVLTQPPSASGSPGQSVTISCSGASSDIGKYNYVSWYQQLPGKAPKLLIYEVTKRPSGVPDRFSGSKSGNTASLTVSGLQADDEADYYCSSYAFGGSDTRVFGGGTKLTVL : ____
Response given: 1.27 OD450
